- targetUnderTest: 6His-Tev-LRRK2 (1326-2527) (Homo sapiens, UniProt Q5S007)
- Construct: A LRRK2 cDNA encoding residues 1326-2527 was received from Dundee University; made in house; host or cells: Spodoptera frugiperda (Sf9) insect cells, baculovirus
- Sequence (Q5S007 1326-2527): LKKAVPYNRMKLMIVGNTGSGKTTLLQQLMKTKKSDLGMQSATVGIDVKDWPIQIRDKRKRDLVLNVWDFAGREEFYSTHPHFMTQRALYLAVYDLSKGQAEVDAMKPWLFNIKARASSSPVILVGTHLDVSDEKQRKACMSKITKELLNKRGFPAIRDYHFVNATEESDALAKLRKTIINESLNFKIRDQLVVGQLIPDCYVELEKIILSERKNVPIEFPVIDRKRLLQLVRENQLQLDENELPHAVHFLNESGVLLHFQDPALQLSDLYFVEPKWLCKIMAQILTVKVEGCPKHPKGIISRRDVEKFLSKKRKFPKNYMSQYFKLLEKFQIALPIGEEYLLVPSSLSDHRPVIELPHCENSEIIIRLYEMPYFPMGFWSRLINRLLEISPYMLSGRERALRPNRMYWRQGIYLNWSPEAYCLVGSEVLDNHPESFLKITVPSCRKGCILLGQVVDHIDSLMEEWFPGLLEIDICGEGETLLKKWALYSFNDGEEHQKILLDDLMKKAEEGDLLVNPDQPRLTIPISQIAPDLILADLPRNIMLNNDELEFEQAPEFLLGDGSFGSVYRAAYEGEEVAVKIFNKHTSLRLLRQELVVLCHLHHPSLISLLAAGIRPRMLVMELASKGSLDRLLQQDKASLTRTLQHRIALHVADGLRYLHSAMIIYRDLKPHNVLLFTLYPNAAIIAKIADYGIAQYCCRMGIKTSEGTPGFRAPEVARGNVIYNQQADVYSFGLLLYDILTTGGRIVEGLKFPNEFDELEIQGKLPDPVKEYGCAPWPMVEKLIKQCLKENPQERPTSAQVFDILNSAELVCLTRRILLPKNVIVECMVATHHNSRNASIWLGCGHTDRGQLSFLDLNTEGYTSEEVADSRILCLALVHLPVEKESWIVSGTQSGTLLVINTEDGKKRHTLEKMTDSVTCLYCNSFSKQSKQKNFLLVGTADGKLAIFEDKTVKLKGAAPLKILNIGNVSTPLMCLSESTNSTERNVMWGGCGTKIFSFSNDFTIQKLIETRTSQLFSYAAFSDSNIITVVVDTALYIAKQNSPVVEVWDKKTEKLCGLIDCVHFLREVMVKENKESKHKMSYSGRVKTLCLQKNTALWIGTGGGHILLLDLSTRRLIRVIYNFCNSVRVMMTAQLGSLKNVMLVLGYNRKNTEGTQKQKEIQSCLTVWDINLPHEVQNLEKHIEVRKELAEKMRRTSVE
- assayOverview: LRRK2 peptide substrate assay
- Type: biochemical
- testSettings: Biotin-LRRKtide peptide substrate, ATP at Km; read-out: pIC50 in the LRRK2 peptide substrate assay (converted)
- Method: Compounds of formula (I) may be tested for in vitro kinase activity in accordance with the following assays, using the non natural, in vitro, substrates moesin and the Longer Biotin-LRRKtide. […] b) 3 μl enzyme solution (80 nM purified recombinant 6His-Tev-LRRK2 (1326-2527) in assay buffer: 50 mM Hepes (pH 7.2), 10 mM MgCl2, 150 mM NaCl, 5% glycerol, 0.0025% triton X-100 and 1 mM DTT) is added to certain wells. […] Data is analysed using ActivityBase software (IDBS). […]
reportedProperty: IC50

Example compounds with recorded IC50:
compound	targetUnderTest	observed
O=C(Nc1ccnnc1)c1cc(-c2cn[nH]c2)ccc1OCc1ccc(F)cc1 [Example 92]	6His-Tev-LRRK2 (1326-2527) (Homo sapiens, UniProt Q5S007)	≤ 10 nM
CC(O)c1ccc(OCc2ccccc2)c(C(=O)Nc2cccnc2)c1 (centres unmarked) [Example 75]	6His-Tev-LRRK2 (1326-2527) (Homo sapiens, UniProt Q5S007)	≤ 10 nM
O=C(Nc1cccnc1)c1cc(Br)ccc1OCc1ccccc1F [Example 58]	6His-Tev-LRRK2 (1326-2527) (Homo sapiens, UniProt Q5S007)	≤ 10 nM
O=C(Nc1cccnc1)c1cc(C(=O)N2CCCC2)ccc1OCc1ccccc1 [Example 37]	6His-Tev-LRRK2 (1326-2527) (Homo sapiens, UniProt Q5S007)	≤ 100 nM
CC(C)(O)c1ccc(OCc2ccccc2)c(C(=O)Nc2cccnc2)c1 [Example 76]	6His-Tev-LRRK2 (1326-2527) (Homo sapiens, UniProt Q5S007)	≤ 10 nM

Then this compound:
### Prompt Please give the documented IC50 of CN1CCN(c2ccc(OCc3ccccc3)c(C(=O)Nc3cccnc3)c2)CC1 [Example 32]
### Response ≤ 10 nM

----------
- targetUnderTest: 6His-Tev-LRRK2 (1326-2527) (Homo sapiens, UniProt Q5S007)
- Construct: A LRRK2 cDNA encoding residues 1326-2527 was received from Dundee University; made in house; host or cells: Spodoptera frugiperda (Sf9) insect cells, baculovirus
- assayOverview: LRRK2 AlphaScreen desensitised protein substrate assay
- Type: biochemical
- testSettings: excess of ATP present (2 mM ATP); read-out: pIC50 in the LRRK2 alphascreen desensitised protein substrate assay (converted)
- Description: a) 100 nl of a 1:4 serial dilution of test compound with a top final assay concentration of 30 μM is added to certain wells in a low volume 384 well black plate. 100 nl of DMSO is used in certain wells as controls. b) 3 μl enzyme solution (80 nM purified recombinant 6His-Tev-LRRK2 (1326-2527) in assay buffer: 50 mM Hepes (pH 7.2), 10 mM MgCl2, 150 mM NaCl, 5% glycerol, 0.0025% triton X-100 and 1 mM DTT) is added to certain wells. […]
reportedProperty: IC50

Example compounds with recorded IC50:
compound	observed
O=C(Nc1cccnc1)c1cc(Br)ccc1OCc1ccc(Cl)cc1	≤ 20 µM
O=C(Nc1cccnc1)c1cc(CN2CCCC2)ccc1OCc1ccccc1	≤ 20 µM
O=C(Nc1cnccc1CO)c1cc(-c2ccncc2)ccc1OCc1ccccc1	> 25.1 µM
COc1ncccc1NC(=O)c1cc(-c2ccncc2)ccc1OCc1ccccc1	> 25.1 µM
O=C(Nc1cn[nH]c1)c1cc(-c2ccncc2)ccc1OCc1ccccc1	≤ 20 µM

### Prompt Please give the documented IC50 of CC(O)c1ccc(OCc2ccccc2)c(C(=O)Nc2cccnc2)c1 (stereo not drawn)
### Response ≤ 20 µM

### Prompt Please give the documented IC50 of CN1CCN(S(=O)(=O)c2ccc(OCc3ccccc3)c(C(=O)Nc3cccnc3)c2)CC1
### Response > 25.1 µM

### Prompt Please give the documented IC50 of O=C(Nc1cncc(F)c1)c1cc(-c2ccncc2)ccc1OCc1ccccc1
### Response > 25.1 µM

### Prompt Please give the documented IC50 of O=C(Nc1cccnc1)c1cc(C(=O)N2CCCC2)ccc1OCc1ccccc1
### Response ≤ 20 µM

----------
- targetUnderTest: 6His-Tev-LRRK2 (1326-2527) (Homo sapiens, UniProt Q5S007)
- Construct: A LRRK2 cDNA encoding residues 1326-2527 was received from Dundee University; made in house; host or cells: Spodoptera frugiperda (Sf9) insect cells, baculovirus
- assayOverview: LRRK2 AlphaScreen desensitised protein substrate assay
- Format: biochemical
- testSettings: excess of ATP present (2 mM ATP); read-out: pIC50 in the LRRK2 alphascreen desensitised protein substrate assay (converted)
reportedProperty: IC50

Example compounds with recorded IC50:
compound	IC50
Cn1cc(-c2ccc(OCc3ccccc3)c(C(=O)Nc3ccnnc3)c2)cn1	≤ 20 µM
O=C(Nc1cccnc1)c1cc(O)ccc1OCc1ccccc1	≤ 20 µM
COc1cccc(COc2ccc(-c3cnn(C)c3)cc2C(=O)Nc2cccnc2)c1	≤ 20 µM
O=C(Nc1cccnc1F)c1cc(C(=O)N2CCOCC2)ccc1OCc1ccc(F)cc1	≤ 20 µM
O=C(Nc1ccnnc1)c1cc(CN2CCOCC2)ccc1OCc1ccc(F)c(F)c1	≤ 20 µM

### Prompt Please give the documented IC50 of CCc1cccc(NC(=O)c2cc(Br)ccc2OCc2ccccc2)c1
### Response > 25.1 µM

### Prompt Please give the documented IC50 of Cn1cc(NC(=O)c2cc(Br)ccc2OCc2ccccc2)cn1
### Response ≤ 20 µM

### Prompt Please give the documented IC50 of O=C(Nc1cccnc1)c1cc(-c2cn[nH]c2)ccc1OCc1ccccc1
### Response ≤ 20 µM

### Prompt Please give the documented IC50 of NCc1ccc(OCc2ccc(F)c(F)c2)c(C(=O)Nc2cccnc2)c1 [Example 120A]
### Response > 25.1 µM

### Prompt Please give the documented IC50 of N#Cc1ccc(OCc2ccccc2)c(C(=O)Nc2cccnc2)c1
### Response ≤ 20 µM

----------
The entries below come with measured IC50 values attached.
- targetUnderTest: 6His-Tev-LRRK2 (1326-2527) (Homo sapiens, UniProt Q5S007)
- Construct: A LRRK2 cDNA encoding residues 1326-2527 was received from Dundee University; made in house; host or cells: Spodoptera frugiperda (Sf9) insect cells, baculovirus
- assayOverview: LRRK2 AlphaScreen desensitised protein substrate assay
- Assay type: biochemical
- testSettings: excess of ATP present (2 mM ATP); read-out: pIC50 in the LRRK2 alphascreen desensitised protein substrate assay (converted)

Example compounds with recorded IC50:
compound	IC50
Cc1nocc1NC(=O)c1cc(C(F)(F)F)ccc1OCc1ccc(F)cc1 [Example 133]	> 25.1 µM
Nc1cc(-c2ccc(OCc3ccccc3)c(C(=O)Nc3cccnc3)c2)ccn1 [Example 122]	≤ 20 µM
O=C(Nc1cccnc1)c1cc(-c2ccncc2)ccc1OCc1ccc(F)cc1 [Example 90]	≤ 20 µM
O=C(Nc1cccnc1F)c1cc(C(=O)N2CCOCC2)ccc1OCc1ccc(F)cc1F [Example 125]	≤ 20 µM

Then this compound:
### Prompt Please give the documented IC50 of COC(=O)NCc1ccc(OCc2ccccc2)c(C(=O)Nc2cccnc2)c1 [Example 86]
### Response ≤ 20 µM

Just for reference, patent US8778939B2 is where these values come from.
